- test_target: Keap1/Nrf2 (Homo sapiens, UniProt Q14145)
- Sequence (Q16236 whole entry, the tested form may be a part): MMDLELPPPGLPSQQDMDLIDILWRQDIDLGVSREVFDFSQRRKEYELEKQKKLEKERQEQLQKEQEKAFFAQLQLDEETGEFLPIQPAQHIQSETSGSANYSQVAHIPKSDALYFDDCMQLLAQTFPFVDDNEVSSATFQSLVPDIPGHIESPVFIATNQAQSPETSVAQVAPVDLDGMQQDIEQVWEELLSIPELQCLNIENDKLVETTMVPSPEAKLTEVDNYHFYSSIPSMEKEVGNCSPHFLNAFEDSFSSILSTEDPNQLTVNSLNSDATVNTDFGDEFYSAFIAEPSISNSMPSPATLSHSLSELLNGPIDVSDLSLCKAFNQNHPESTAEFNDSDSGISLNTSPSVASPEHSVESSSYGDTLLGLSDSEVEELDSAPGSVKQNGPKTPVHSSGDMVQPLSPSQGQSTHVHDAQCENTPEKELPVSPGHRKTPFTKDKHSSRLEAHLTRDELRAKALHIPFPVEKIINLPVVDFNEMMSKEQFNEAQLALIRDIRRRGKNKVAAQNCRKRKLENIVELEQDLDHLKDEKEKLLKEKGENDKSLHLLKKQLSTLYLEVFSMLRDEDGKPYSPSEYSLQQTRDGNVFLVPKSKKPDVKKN
- Sequence (Q14145 whole entry, the tested form may be a part): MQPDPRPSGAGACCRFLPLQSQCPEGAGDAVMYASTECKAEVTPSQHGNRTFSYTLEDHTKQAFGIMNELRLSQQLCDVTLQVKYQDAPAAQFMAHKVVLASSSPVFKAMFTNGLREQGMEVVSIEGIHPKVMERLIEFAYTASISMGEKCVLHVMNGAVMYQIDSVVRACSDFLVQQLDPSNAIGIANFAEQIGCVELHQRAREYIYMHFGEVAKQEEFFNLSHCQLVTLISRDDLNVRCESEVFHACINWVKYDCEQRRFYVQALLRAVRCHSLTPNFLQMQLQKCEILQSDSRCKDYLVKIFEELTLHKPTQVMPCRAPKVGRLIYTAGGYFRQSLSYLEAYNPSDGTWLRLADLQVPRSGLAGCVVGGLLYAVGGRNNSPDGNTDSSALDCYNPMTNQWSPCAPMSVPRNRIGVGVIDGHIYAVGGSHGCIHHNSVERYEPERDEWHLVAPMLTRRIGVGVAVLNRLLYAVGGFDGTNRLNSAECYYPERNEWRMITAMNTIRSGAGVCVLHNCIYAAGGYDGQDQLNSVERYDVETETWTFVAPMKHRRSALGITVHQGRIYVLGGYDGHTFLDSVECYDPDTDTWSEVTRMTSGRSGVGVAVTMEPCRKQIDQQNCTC
- protocol_notes: Inhibition of His-tagged Keap1 kelch domain/Nrf2 (unknown origin) protein-protein interaction using FITC-LDEETGEFL-NH2 peptide as substrate preincubated for 30 mins followed by substrate addition and measured after 1 hr by TR-FRET assay
value_type: IC50 (nM)
Give bare numbers, in nM.

-- ask Missing value: IC50, Keap1/Nrf2 (Homo sapiens, UniProt Q14145), entry "Cc1ccc(S(=O)(=O)N(CC(=O)O)c2cc(OCc3ccc(F)cc3)c(N(CC(=O)O)S(=O)(=O)c3ccc(C)cc3)c3ccccc23)cc1" . Fill in?
-- reply 14.2

* * *

Assign IC50 to each entry below.
- test_target: Keap1/Nrf2 (Homo sapiens, UniProt Q14145)
- protocol_notes: Inhibition of recombinant human Keap1 Kelch domain (321 to 609 residues) expressed in Escherichia coli BL21 (DE3)pLysS cells/Nrf2 (unknown origin) protein-protein interaction using FITC-LDEETGEFL-NH2 as fluorescent substrate preincubated with compound for 30 mins followed by substrate addition and measured after 1 hr by fluorescence polarization assay relative to control
One number for each entry, in nM.

COc1ccc(S(=O)(=O)N(CC(=O)O)c2ccc(N(CC(=O)O)S(=O)(=O)c3ccc(OC)cc3)c(OCc3cccnc3)c2)cc1	760

Return reported IC50 values for all items listed beneath this line.
1. COc1ccc(S(=O)(=O)N(CC(=O)O)c2ccc(N(CC(=O)O)S(=O)(=O)c3ccc(OC)cc3)c(OCc3ccc4ccccc4c3)c2)cc1
2. Cc1ccc(S(=O)(=O)N(CC(=O)O)c2ccc(N(CC(=O)O)S(=O)(=O)c3ccc(C)cc3)c(OCc3ccc(-c4ccccc4)cc3)c2)cc1
3. O=C(O)CN(c1ccc(N(CC(=O)O)S(=O)(=O)c2ccc(F)cc2)c(OCc2ccccc2)c1)S(=O)(=O)c1ccc(F)cc1
4. COc1ccc(S(=O)(=O)N(CC(=O)O)c2ccc(N(CC(=O)O)S(=O)(=O)c3ccc(OC)cc3)c(OCc3ccc(Oc4ccccc4)cc3)c2)cc1

-- reply
1: 480; 2: 440; 3: 2410; 4: 830
